In this section, each of the binders is paired with its reported ECL signal.
# Tgt: T1, rHuman CD44/Fc Chimera, CF (R&D Systems Cat#3660-CD) (human, UniProt P16070 21-220)
# T1 construct: Bought recombinant protein
# Experiment Notes: ECL multispot (MSD) binding assay, antigen spotted on plate;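 also: purified Fab incubated 1 h at 20 °C on antigen spots, detected with TAG-labelled antibody, electrochemiluminescence compared with each well's blank, signal-to-blank ratio ≥4 counted as hit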
Assay Readout: ECL signal

Binder	Quantitative Readout
Fab VH1-46_IGHD6-6*01_IGHJ1*01 S102A/S103P/S104F/H111F (APFF) & L6_IGKJ1*01 S31D (Fab, V domains shown, Tested as Fab (CH1 with His6/Flag tags, kappa CL) made in E. coli; also called APFF / S31D) VH: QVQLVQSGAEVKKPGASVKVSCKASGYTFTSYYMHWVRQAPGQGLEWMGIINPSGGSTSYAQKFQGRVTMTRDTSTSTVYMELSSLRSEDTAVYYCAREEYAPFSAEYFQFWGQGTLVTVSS VL: EIVLTQSPATLSLSPGERATLSCRASQSVSDYLAWYQQKPGQAPRLLIYDASNRATGIPARFSGSGSGTDFTLTISSLEPEDFAVYYCQQRSNWPPWTFGQGTKVEIKR	471
Fab VH1-46_IGHD6-6*01_IGHJ1*01 S102A/S103P/S104F/H111F (APFF) & L6_IGKJ1*01 S31H (Fab, V domains shown, Tested as Fab (CH1 with His6/Flag tags, kappa CL) made in E. coli; also called APFF / S31H) VH: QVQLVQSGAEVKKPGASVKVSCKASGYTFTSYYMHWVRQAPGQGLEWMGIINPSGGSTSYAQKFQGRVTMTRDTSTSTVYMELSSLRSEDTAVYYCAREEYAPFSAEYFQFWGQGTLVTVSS VL: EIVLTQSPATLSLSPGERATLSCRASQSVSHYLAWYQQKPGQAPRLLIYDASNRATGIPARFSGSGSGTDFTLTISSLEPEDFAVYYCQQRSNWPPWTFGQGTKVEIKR	426
